- System: OVCAR-8 ovarian
- experiment_description: NCI-60 one-dose screen, 48 h (100 = growth as untreated, 0 = no growth, -100 = all killed)
- run_conditions: 10 µM unless noted
The panel holds about 83,000 compounds, 20% with a hit somewhere; the sample as a whole holds those more often.

| structure_string | growth [%] |
| --- | --- |
| Cn1cc(NC(=O)c2cc(NC(=O)c3ccc(C#Cc4ccccc4)cc3)cn2C)cc1C(=O)NCCCN1CCOCC1 | 38.9 |
| Cn1cc(-c2cc3nc(-c4cn(C)c5ncccc45)cc(N)n3n2)c2cc(Cl)ccc21 | -41.4 |
| Nc1nc(C(F)(F)F)cs1 | 105 |
| C/C(=N\Nc1ccc(S(N)(=O)=O)cc1)c1ccc(N=Nc2c(Nc3ccccc3)[nH][nH]c2=O)cc1 | -20.2 |
